Molecular target: T1, HLA-A*0201 molecule on human T2 cells (human)
T1 construct: MHC class I molecule on T2 cells
Test: T2 cell HLA-A*0201 stabilisation, flow cytometry with BB7.2; peptide concentration giving 20% of reference fluorescence, relative to HIVpol 589
Readout Type: RA (relative affinity)

Quick check: RA (relative affinity) of VLLLVLAGV (Synthetic 9-mer fragment of the human EphA2 antigen) [p546 peptide of EphA2] ?
1.4 ratio to reference peptide

Requested field: RA (relative affinity). Item: VLAGVGFFI (Synthetic 9-mer fragment of the human EphA2 antigen) [p550 peptide of EphA2]
1 ratio to reference peptide

What value of RA (relative affinity) has been reported for the following binder? YMPIYMYSV (Variant of p61 in which the N-terminal aspartic acid is replaced by tyrosine) [p61Y variant peptide]
1.5 ratio to reference peptide

Find the recorded RA (relative affinity) belonging to TLADFDPRV (Synthetic 9-mer fragment of the human EphA2 antigen) [p883 peptide of EphA2] and report it.
2.2 ratio to reference peptide

So what does the record say about RA (relative affinity) for IMNDMPIYM (Synthetic 9-mer fragment of the human EphA2 antigen (SYNT:EM), purity >85%) [p58 peptide of EphA2] ?
1 ratio to reference peptide
